meta.source: a melting point compilation (Tetko et al.; mined from patent text by program, amines drawn as free bases though some values may be those of a salt)

Measured melting point, listed per entry for reference.

Below, each entry is followed by its recorded melting point result.
INSERT INTO measurements (molecule, reported) VALUES
  ('Clc1cc(Cl)cc(CC(Cl)CC(Cl)(Cl)Cl)c1 (centres undefined)', '44.5 to 46.5 °C'),
  ('O=C(O)C1(c2ccc3c(c2)CCCC3)CCC1', '123 to 126 °C'),
  ('CCCCNc1nc2cccc(C(=O)OC)c2n1Cc1ccccc1-c1ccccc1-c1nnn[nH]1', '216 to 218 °C'),
  ('CCOC(=O)c1c(SCc2ccc(OC)cc2)c(CC)c2cc(Cl)ccn2c1=O', '159 to 160 °C'),
  ('CC(C)(C)C(=O)Oc1cccc2c1C(=O)c1c(OC(=O)C(C)(C)C)cccc1C2C(=O)c1ccccc1', '191 °C');

Suppose we examine the molecule `COCOc1c(C(C)(C)C)cc(C=[N+]([O-])C(C)(C)C)cc1C(C)(C)C` ; what melting point value has been reported? 202 to 206 °C

Suppose we examine the molecule CCc1cn(C2CC(O)C(CS(=O)(=O)Cc3ccccc3)O2)c(=O)[nH]c1=O (centres undefined) ; what melting point value has been reported? 232 to 233 °C

Suppose we examine the molecule `CS(=O)(=O)c1ccc(-c2cnn(CC(F)(F)F)c(=O)c2Oc2ccc(F)cc2)cc1` ; what melting point value has been reported? 161 to 164 °C

Suppose we examine the molecule CCCC1=C([N+](=O)[O-])C(c2cccc3c2OCCC3)c2c[nH]nc2N1 (centres undefined) ; what melting point value has been reported? 234 °C

Suppose we examine the molecule `CCCc1c(OCCCCCOc2ccccc2CCCC(=O)O)ccc2c1OCCC2=O` ; what melting point value has been reported? 116 to 118 °C

Suppose we examine the molecule `CCCCC1=NC2(CCCC2)C(=O)N1Cc1ccc(-c2ccccc2S(=O)(=O)Nc2noc(C)c2C)c(COCC)c1` ; what melting point value has been reported? 148 °C

Suppose we examine the molecule `C=Cc1noc(C2=CCCN(C(=O)OC(C)(C)C)C2)n1` ; what melting point value has been reported? 81 to 82 °C

Suppose we examine the molecule `CCOC(=O)CCNC(=O)CN1CC(=O)N(C)c2ccc(NC(=O)NCc3ccccc3)cc2C1=O` ; what melting point value has been reported? 100 to 102 °C

Suppose we examine the molecule `N=C(N)NCCC[C@@H](NC(=O)C(c1ccccc1)c1ccccc1)C(=O)NCc1ccc(CCC(N)=O)cc1` ; what melting point value has been reported? 207 to 208 °C

Suppose we examine the molecule CC(=O)OCCn1ccc(=O)c(OCc2ccccc2)c1C(OC(C)=O)c1cccc(F)c1 (centres undefined) ; what melting point value has been reported? 148 to 149 °C

Suppose we examine the molecule `Fc1ccc(N2CCN(Cc3c[nH]c4ncccc34)CC2)cc1` ; what melting point value has been reported? 214 to 216 °C

Suppose we examine the molecule `C[C@@H](n1cnc2c(cnn2-c2ccc(F)cc2)c1=O)[C@](O)(Cn1cncn1)c1ccc(F)cc1F` ; what melting point value has been reported? 217 to 218 °C

Suppose we examine the molecule CC=CCn1c(=O)n(C2OC(CO)C(O)C2O)c2nc(N)[nH]c(=O)c21 (centres undefined) ; what melting point value has been reported? 167 to 170 °C

Suppose we examine the molecule `O=C(NCc1cccnc1)c1cc2ccnc(N(Cc3ccccc3)Cc3ccccc3)c2[nH]1` ; what melting point value has been reported? 105 to 108 °C

Suppose we examine the molecule O=C(Cn1c(-c2ccccc2)ncc(NC(=O)OCc2ccc(C(=O)O)cc2)c1=O)NC(Cc1ccccc1)C(=O)C(F)(F)F (centres undefined) ; what melting point value has been reported? 202 to 207 °C

----------
Measured melting point, listed per entry for reference.

Below, each entry is followed by its recorded melting point result.
INSERT INTO assay_data (molecule, outcome_measure, reported) VALUES
  ('CC1(C)CC(=O)c2c(nc(C3CCCC3)c(C(=O)c3ccc(C(F)(F)F)cc3)c2-c2ccc(F)c(F)c2)C1', 'melting point', '210 to 212 °C'),
  ('CC(=O)C=Cc1cccc(OCCF)c1OCCF', 'melting point', '71 to 72 °C'),
  ('Cc1nnc(F)c(-c2c(F)cc(F)cc2F)c1-c1cccs1', 'melting point', '71 to 74 °C'),
  ('COC(=O)c1cc(-c2ccc3c(=O)[nH]c(=O)[nH]c3n2)ccc1OC', 'melting point', '301 to 303 °C'),
  ('O=C(Nc1ccccc1)O[C@@H]1CN=C(c2cccc(Cl)c2)O[C@H]1c1ccccc1 (racemic)', 'melting point', '126 °C');

Suppose we examine the molecule `Fc1ccc2[nH]c3c(ccc4cc[nH]c43)c2c1` ; what melting point value has been reported? > 250 °C

Suppose we examine the molecule `O=C1CCCNc2ccc(Br)cc21` ; what melting point value has been reported? 99 to 101 °C

Suppose we examine the molecule N#Cc1ccccc1Oc1ccc(-c2cn(C3CCOC3)c3ncnc(N)c23)cc1 (stereo unspecified) ; what melting point value has been reported? 201 to 203 °C

Suppose we examine the molecule `COc1ccc(Cc2nc3c(N)nc4ccccc4c3n2CCCCNS(C)(=O)=O)cc1` ; what melting point value has been reported? 78.1 to 79.5 °C

Suppose we examine the molecule `O=c1[nH]c2cc(Cl)cc(Cl)c2c(=O)n1Cc1cccc(Br)c1` ; what melting point value has been reported? 161 to 165 °C

Suppose we examine the molecule O=S(CCCCl)Cc1ccccc1 (stereo unspecified) ; what melting point value has been reported? 70 to 71 °C

----------
outcome.measure: melting point

Below, each entry is followed by its recorded melting point result.
INSERT INTO assay_data (molecule, outcome_measure, reported) VALUES
  ('O=c1[nH]c(=O)n(CCCCN2CCC(OC(c3ccccc3)c3ccccc3)CC2)c2cc([N+](=O)[O-])ccc12', 'melting point', '214 to 215 °C'),
  ('CCOc1cc2ncc(C#N)c(NCc3ccc(OC)c(OC)c3)c2cc1OCC', 'melting point', '200 to 204 °C'),
  ('Cc1c(C(=O)c2ccccc2Cl)c(NC(=O)CI)cn1C', 'melting point', '155 to 157 °C'),
  ('COc1c(-c2cc3c(s2)CC(O)C3)ccc2c(=O)c(C(=O)O)cn(C3CC3)c12 (stereo not given)', 'melting point', '254 to 255 °C');

Suppose we examine the molecule `CCCSCc1cccc(-c2nc(=O)c3ccccc3s2)n1` ; what melting point value has been reported? 112 to 113 °C

Suppose we examine the molecule `COC(=O)c1cccc(-c2nc(C(Cl)(Cl)Cl)nc(C(Cl)(Cl)Cl)n2)c1` ; what melting point value has been reported? 115 to 117 °C

Suppose we examine the molecule CCCC1=C(C#N)C(c2ccccc2[N+](=O)[O-])c2c[nH]nc2N1 (stereo not given) ; what melting point value has been reported? 216 °C

Suppose we examine the molecule `COc1cccc(-c2cc(O)c(SCc3ccccc3)c(=O)o2)c1` ; what melting point value has been reported? 146 to 147 °C

Suppose we examine the molecule `CC(C)CNc1cccc(-c2ccnc3c(C(=O)c4cccs4)cnn23)c1` ; what melting point value has been reported? 186 to 188 °C

Suppose we examine the molecule `O=Cc1ccc(OCc2ccccc2)c(F)c1` ; what melting point value has been reported? 94 to 95 °C

----------
outcome.measure: melting point

INSERT INTO measurements (compound, outcome_measure, reported) VALUES
  ('C[Si](C)(C)CCc1nnc(N)nc1N', 'melting point', '203 to 204 °C'),
  ('CCCCCCCCCCCCCCCCS(=O)(=O)c1ccc(-n2c(=O)cc(N)n2C(=O)OCC)cc1', 'melting point', '92 °C'),
  ('CCCCCCCCCCCCCCCCCCOc1cccc(NCC(=O)OCc2ccccc2)c1', 'melting point', '55 to 60 °C'),
  ('COc1ccc(C=O)cc1-n1nnnc1C', 'melting point', '157 °C'),
  ('Cn1cncc1C(O)(c1ccc(Cl)cc1)c1ccc2c(c1)C(c1cccc(Cl)c1)Nc1nnnn1-2 (centres undefined)', 'melting point', '212 °C');

Suppose we examine the compound `CCOCCOc1c(C)cc(-c2ccc3c(c2)C=C(C(=O)Nc2ccc(CN(C)C4CCOCC4)cc2)CCS3(=O)=O)cc1C` ; what melting point value has been reported? 211 to 212 °C

Suppose we examine the compound `COc1cc2c(cc1-c1ccc(F)cc1)C(=CNc1ccc(CN3CCCCC3)cc1)C(=O)NC2=O` ; what melting point value has been reported? 227 to 230 °C

Suppose we examine the compound `Cn1c(-c2ccc(-c3nccs3)cc2)cnc1[C@H](Cc1ccccn1)N(C=O)c1cc2cc(Cl)ccc2o1` ; what melting point value has been reported? 144 to 146 °C

Suppose we examine the compound `CCOC(=O)c1cc2c(C(F)(F)F)cc(C=O)cc2n1C` ; what melting point value has been reported? 140 to 141 °C
